Entry source: patent US8658616B2

# Test system: Huh 7 cells
# procedure.summary: CC50 (cytotoxicity, Table I)
# Format: cell-based
# experimental.parameters: method and cell line not described
quantity.name: CC50

Query: Fill in the blank: the reported CC50 of C[C@@]1(O)[C@H](O)[C@@H](CO)O[C@H]1n1cnc2c(=O)[nH]c(N)nc21 [CHC5, β-2′-methyl-guanosine, reference compound] is ____.
Reply: > 50 µM

New cases:
Query: Fill in the blank: the reported CC50 of CC1(O)C(O)[C@@H](CO)O[C@H]1n1cnc2c(N)ncnc21 (stereo partly drawn) [CHC1, β-2′-methyl-adenosine, reference compound] is ____.
Reply: > 33 µM

---

Here, each record is paired with measured CC50 data.
# procedure.summary: CC50 (cytotoxicity, Table I)
# Assay type: cell-based
# experimental.parameters: human, Huh 7 cells; method and cell line not described
Unit µM implied. Number only.

Query: Fill in the blank: the reported CC50 of C[C@H](NP(=O)(OC[C@H]1O[C@@H](n2cnc3c(N)ncnc32)C(C)(O)C1O)Oc1cccc2ccccc12)C(=O)OCc1ccccc1 (stereo partly drawn) is ____.
Reply: 44

New cases:
Query: Fill in the blank: the reported CC50 of CC1(O)C(O)[C@@H](CO)O[C@H]1n1cnc2c(N)ncnc21 (stereo partly drawn) [CHC1, β-2′-methyl-adenosine, reference compound] is ____.
Reply: 29

---

# Tested on: subgenomic HCV replicons I389luc-ubi-neo/NS3-3′/5.1 (Huh 5-2)
# procedure.summary: Anti-HCV assay in Huh 5-2 cells (luciferase replicon)
# Type: cell-based, hepatitis C virus (HCV)
# experimental.parameters: Hepatitis C virus, Huh-5-2, 96 h, read-out: HCV Huh 5-2 EC50, Huh 5-2 cells, 4 days incubation, concentration that reduced the luciferase signal by 50%
# Description: Anti-HCV assay in Huh 7 cells. […] Huh 5-2 cells were seeded at a density of 5×10^3 per well in a tissue culture treated white 96-well view plate (Packard, Canberra, Canada) in complete DMEM supplemented with 250 μg/ml G418. […] After 4 days of incubation at 37° C., cell culture medium was removed and luciferase activity was determined using the Steady-Glo luciferase assay system (Promega, Leiden, The Netherlands); the luciferase signal was measured using a Luminoskan Ascent (Thermo, Vantaa, Finland). […]
Here, each record is paired with measured EC50 data.

Record excerpt, results attached:
Query: Lab note: need EC50 with subgenomic HCV replicons I389luc-ubi-neo/NS3-3′/5.1 (Huh 5-2) for entry CCOC(=O)[C@H](C)NP(=O)(OC[C@H]1O[C@@H](n2cnc3c(N)ncnc32)C(C)(O)C1O)Oc1cccc2ccccc12 (stereo partly drawn) , please look it up.
Reply: 120 nM

Query: Lab note: need EC50 with subgenomic HCV replicons I389luc-ubi-neo/NS3-3′/5.1 (Huh 5-2) for entry CCOC(=O)[C@H](C)NP(=O)(OC[C@H]1O[C@@H](n2cnc3c(=O)[nH]c(N)nc32)C(C)(O)C1O)Oc1cccc2ccccc12 (stereo partly drawn) , please look it up.
Reply: 150 nM

# input for lookup
Query: Lab note: need EC50 with subgenomic HCV replicons I389luc-ubi-neo/NS3-3′/5.1 (Huh 5-2) for entry C[C@H](NP(=O)(OC[C@H]1O[C@@H](n2cnc3c(=O)[nH]c(N)nc32)C(C)(O)C1O)Oc1cccc2ccccc12)C(=O)OC(C)(C)C (stereo partly drawn) , please look it up.
Reply: > 50000 nM
